The measurements presented in this section are drawn from paper PMC6270751.

Answer each item with its documented π.
- procedure-details: Lipophilicity log k by RP-HPLC
- condition-context: π = log k(substituted) – log k(unsubstituted)

IN: Reported π for Cc1ccccc1CNc1nc(C#N)c(C#N)nc1C : what is it?
OUT: 0.1674

IN: Same lookup for Cc1nc(C#N)c(C#N)nc1NCc1ccc(Cl)cc1 , please.
OUT: 0.2390

IN: Same lookup for Cc1nc(C#N)c(C#N)nc1NCc1ccccc1Cl , please.
OUT: 0.1669

IN: Same lookup for COc1ccc(CNc2nc(C#N)c(C#N)nc2C)cc1 , please.
OUT: −0.0174

IN: Same lookup for Cc1nc(C#N)c(C#N)nc1NCc1ccc(N)cc1 , please.
OUT: −0.5008

IN: Same lookup for COc1ccc(CNc2nc(C#N)c(C#N)nc2C)c(OC)c1 , please.
OUT: 0.0705

IN: Same lookup for Cc1nc(C#N)c(C#N)nc1NCc1cccc(C(F)(F)F)c1 , please.
OUT: 0.2375

IN: Same lookup for Cc1ccc(CNc2nc(C#N)c(C#N)nc2C)cc1 , please.
OUT: 0.2163

IN: Same lookup for Cc1nc(C#N)c(C#N)nc1NCc1cccc(Cl)c1 , please.
OUT: 0.2178

IN: Same lookup for Cc1nc(C#N)c(C#N)nc1NCc1ccccc1F , please.
OUT: 0.0048

###

- procedure-details: Lipophilicity log k by RP-HPLC
- condition-context: π = log k(substituted) – log k(unsubstituted)
property-name: π

IN: Reported π for Cc1nc(C#N)c(C#N)nc1NCc1ccc(C(F)(F)F)cc1 : what is it?
OUT: 0.2632

IN: Same lookup for Cc1nc(C#N)c(C#N)nc1NCc1ccc(Cl)c(Cl)c1 , please.
OUT: 0.4544

IN: Same lookup for Cc1nc(C#N)c(C#N)nc1NCc1ccccc1 , please.
OUT: 0

IN: Same lookup for Cc1nc(C#N)c(C#N)nc1NCc1ccccc1C(F)(F)F , please.
OUT: 0.1871

IN: Same lookup for Cc1nc(C#N)c(C#N)nc1NCc1cccc([N+](=O)[O-])c1 , please.
OUT: −0.1186
